What follows is a collection of IC50 values obtained with EPHA2 (Homo sapiens, UniProt P29317).
Sequence (P29317 24-976): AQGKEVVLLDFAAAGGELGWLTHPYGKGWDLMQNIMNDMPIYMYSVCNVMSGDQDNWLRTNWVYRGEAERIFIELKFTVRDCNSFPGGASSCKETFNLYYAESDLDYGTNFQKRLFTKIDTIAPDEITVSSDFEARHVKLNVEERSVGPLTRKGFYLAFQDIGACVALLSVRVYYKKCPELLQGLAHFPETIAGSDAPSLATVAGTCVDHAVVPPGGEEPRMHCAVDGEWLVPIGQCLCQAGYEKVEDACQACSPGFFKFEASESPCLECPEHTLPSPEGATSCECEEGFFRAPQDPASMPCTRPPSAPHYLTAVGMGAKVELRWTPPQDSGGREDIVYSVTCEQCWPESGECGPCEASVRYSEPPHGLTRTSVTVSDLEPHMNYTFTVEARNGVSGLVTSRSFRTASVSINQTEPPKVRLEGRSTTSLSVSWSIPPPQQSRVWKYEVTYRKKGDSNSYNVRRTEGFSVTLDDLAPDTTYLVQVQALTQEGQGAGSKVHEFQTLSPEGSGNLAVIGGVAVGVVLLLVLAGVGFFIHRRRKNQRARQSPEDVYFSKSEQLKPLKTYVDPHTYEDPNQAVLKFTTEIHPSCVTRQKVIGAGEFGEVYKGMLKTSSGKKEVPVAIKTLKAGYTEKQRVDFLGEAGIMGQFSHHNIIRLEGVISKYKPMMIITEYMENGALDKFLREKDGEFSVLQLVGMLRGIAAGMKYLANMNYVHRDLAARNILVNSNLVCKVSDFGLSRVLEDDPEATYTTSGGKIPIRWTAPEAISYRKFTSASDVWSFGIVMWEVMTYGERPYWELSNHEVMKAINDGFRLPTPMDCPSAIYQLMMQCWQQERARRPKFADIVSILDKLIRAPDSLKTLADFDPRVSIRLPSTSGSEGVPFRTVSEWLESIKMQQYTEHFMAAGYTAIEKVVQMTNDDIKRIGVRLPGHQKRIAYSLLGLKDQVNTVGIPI

Record excerpt, results attached:
COc1cc2c(Oc3ccc(NC(=O)C4(C(=O)Nc5ccc(F)cc5)CC4)cc3)ccnc2cc1OC(=O)N1C[C@H]2C[C@@H]1CN2C :: < 100 nM
COc1cc2nccc(Oc3ccc(NC(=O)C4(C(=O)Nc5ccc(F)cc5)CC4)cc3)c2cc1OC(=O)N1CCN(C)C[C@H]1C :: 100 to 1000 nM
COc1cc2c(Oc3ccc(NC(=O)C4(C(=O)Nc5ccc(F)cc5)CC4)cc3)ccnc2cc1OC(=O)N1CC[C@H](O)C1 :: 100 to 1000 nM
COc1cc2c(Oc3ccc(NC(=O)C4(C(=O)Nc5ccc(F)cc5)CC4)cc3F)ccnc2cc1OC(=O)N1CCN(C)C[C@@H]1C :: < 100 nM
COc1cc2nccc(Oc3ccc(NC(=O)C4(C(=O)Nc5ccc(F)cc5)CC4)cc3)c2cc1OC(=O)N1CCN(C)CC1(C)C :: 100 to 1000 nM
COc1cc2c(Oc3ccc(NC(=O)C4(C(=O)Nc5ccc(F)cc5)CC4)cc3)ccnc2cc1OC(=O)N1CCN(C)C[C@@H]1C :: 100 to 1000 nM
COc1cc2c(Oc3ccc(NC(=O)C4(C(=O)Nc5ccc(F)cc5)CC4)cc3)ccnc2cc1OC(=O)N1CCNCC1(C)C :: 100 to 1000 nM
COc1cc2c(Oc3ccc(NC(=O)C4(C(=O)Nc5ccc(F)cc5)CC4)cc3)ccnc2cc1OC(=O)N1CCN(C)CC1 :: < 100 nM

Please state IC50 for every molecule in the list that follows.
1. COc1cc2nccc(Oc3ccc(NC(=O)C4(C(=O)Nc5ccc(F)cc5)CC4)cc3)c2cc1OC(=O)N1CCNCC1(C)C
2. COc1cc2c(Oc3ccc(NC(=O)C4(C(=O)Nc5ccc(F)cc5)CC4)cc3)ccnc2cc1OC(=O)N1CCNC[C@H]1C
3. COc1cc2c(Oc3ccc(NC(=O)C4(C(=O)Nc5ccc(F)cc5)CC4)cc3)ncnc2cc1OC(=O)N1CCNC[C@H]1C
4. COc1cc2c(Oc3ccc(NC(=O)C4(C(=O)Nc5ccc(F)cc5)CC4)cc3)ccnc2cc1OC(=O)N1CCN(C)[C@H](C)C1
5. COc1cc2nccc(Oc3ccc(NC(=O)C4(C(=O)Nc5ccc(F)cc5)CC4)cc3)c2cc1OC(=O)N1[C@H](C)CNC[C@@H]1C
6. COc1cc2c(Oc3ccc(NC(=O)C4(C(=O)Nc5ccc(F)cc5)CC4)cc3)ncnc2cc1OC(=O)N1CCN(C)C[C@H]1C
7. COc1cc2c(Oc3ccc(NC(=O)C4(C(=O)Nc5ccc(F)cc5)CC4)cc3)ccnc2cc1OC(=O)N1Cc2cn(S(C)(=O)=O)nc2C1

["100 to 1000 nM", "100 to 1000 nM", "> 1000 nM", "100 to 1000 nM", "100 to 1000 nM", "> 1000 nM", "> 1000 nM"]

----------
- experimental-system: TRKA (Homo sapiens)
- Sequence (P04629 33-796): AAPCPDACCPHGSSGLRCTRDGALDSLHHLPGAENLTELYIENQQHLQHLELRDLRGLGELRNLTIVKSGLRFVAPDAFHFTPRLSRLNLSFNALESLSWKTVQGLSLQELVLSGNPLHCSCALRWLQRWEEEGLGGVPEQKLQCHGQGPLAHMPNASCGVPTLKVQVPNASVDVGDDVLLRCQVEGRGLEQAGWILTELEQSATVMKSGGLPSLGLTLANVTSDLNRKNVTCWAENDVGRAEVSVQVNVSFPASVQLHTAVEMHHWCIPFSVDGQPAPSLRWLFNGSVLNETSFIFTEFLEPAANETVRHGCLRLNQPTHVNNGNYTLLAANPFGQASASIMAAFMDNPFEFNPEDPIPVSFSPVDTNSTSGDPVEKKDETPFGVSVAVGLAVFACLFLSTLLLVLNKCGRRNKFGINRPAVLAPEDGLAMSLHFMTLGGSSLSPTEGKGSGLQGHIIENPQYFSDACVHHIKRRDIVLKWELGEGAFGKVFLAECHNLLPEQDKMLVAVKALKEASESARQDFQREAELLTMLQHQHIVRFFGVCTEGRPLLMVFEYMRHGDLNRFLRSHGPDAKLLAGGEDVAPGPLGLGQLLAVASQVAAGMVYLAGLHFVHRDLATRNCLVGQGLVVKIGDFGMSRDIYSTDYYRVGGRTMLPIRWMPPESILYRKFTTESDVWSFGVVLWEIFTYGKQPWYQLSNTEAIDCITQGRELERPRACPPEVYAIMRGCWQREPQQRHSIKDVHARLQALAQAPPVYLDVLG
- assay-name: HotSpot Kinase Assay, TRKA
pIC50: −log10 of the molar value.
readout: pIC50

pIC50 lookup needed for `COc1cc2c(Oc3ccc(NC(=O)C4(C(=O)Nc5ccc(F)cc5)CC4)cc3)ccnc2cc1OC(=O)N1CCN(C)CC1` , thanks.
> 7.00

----------
- experimental-system: UniProtKB Q12866
readout: IC50

COc1cc2c(Oc3ccc(NC(=O)C4(C(=O)Nc5ccc(F)cc5)CC4)cc3)ccnc2cc1OC(=O)N1Cc2cn(S(C)(=O)=O)nc2C1 [Compound 1-16] :: 100 to 1000 nM
COc1cc2c(Oc3ccc(NC(=O)C4(C(=O)Nc5ccc(F)cc5)CC4)cc3)ccnc2cc1OC(=O)N1[C@H](C)CNC[C@@H]1C [Compound 6-2] :: 100 to 1000 nM

Please state recorded IC50 (tested on UniProtKB Q12866) of COc1cc2nccc(Oc3ccc(NC(=O)C4(C(=O)Nc5ccc(F)cc5)CC4)cc3)c2cc1OC(=O)N1[C@H](C)CN(C)C[C@@H]1C [Compound 7-5]
< 100 nM

----------
- experimental-system: LOK/STK10 (Homo sapiens, UniProt O94804)
- Sequence (O94804 whole entry): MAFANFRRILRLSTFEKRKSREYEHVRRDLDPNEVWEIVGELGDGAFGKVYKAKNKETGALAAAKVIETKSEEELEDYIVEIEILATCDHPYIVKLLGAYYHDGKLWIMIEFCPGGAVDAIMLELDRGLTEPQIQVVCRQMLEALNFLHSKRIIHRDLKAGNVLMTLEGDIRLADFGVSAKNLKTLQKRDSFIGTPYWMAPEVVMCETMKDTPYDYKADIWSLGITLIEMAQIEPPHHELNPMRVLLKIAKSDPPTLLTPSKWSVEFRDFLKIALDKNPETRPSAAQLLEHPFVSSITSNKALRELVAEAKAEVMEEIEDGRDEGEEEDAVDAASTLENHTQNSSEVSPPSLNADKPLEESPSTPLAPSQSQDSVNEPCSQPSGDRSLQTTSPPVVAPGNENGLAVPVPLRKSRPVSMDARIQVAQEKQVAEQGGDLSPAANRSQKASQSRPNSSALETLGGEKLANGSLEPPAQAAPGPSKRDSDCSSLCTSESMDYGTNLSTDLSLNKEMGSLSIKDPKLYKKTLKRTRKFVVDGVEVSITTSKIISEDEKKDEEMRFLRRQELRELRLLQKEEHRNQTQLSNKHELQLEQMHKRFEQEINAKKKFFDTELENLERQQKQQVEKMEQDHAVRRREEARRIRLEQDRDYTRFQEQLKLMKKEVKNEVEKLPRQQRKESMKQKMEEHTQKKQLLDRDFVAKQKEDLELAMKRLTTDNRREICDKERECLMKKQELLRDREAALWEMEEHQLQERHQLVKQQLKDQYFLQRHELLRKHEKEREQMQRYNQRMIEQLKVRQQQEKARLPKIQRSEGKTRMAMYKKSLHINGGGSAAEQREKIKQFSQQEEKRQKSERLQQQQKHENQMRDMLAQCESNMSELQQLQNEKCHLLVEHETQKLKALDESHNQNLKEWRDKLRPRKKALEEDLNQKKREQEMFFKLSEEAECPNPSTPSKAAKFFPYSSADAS
- assay-name: HotSpot Kinase Assay, LOK/STK10
pIC50: −log10 of the molar value.
Kindly state pIC50 for each of the entries shown.

Record excerpt, results attached:
COc1cc2c(Oc3ccc(NC(=O)C4(C(=O)Nc5ccc(F)cc5)CC4)cc3)ccnc2cc1OC(=O)N1CCN(C)[C@H](C)C1 [Compound 2-2] :: 6.00 to 7.00
COc1cc2c(Oc3ccc(NC(=O)C4(C(=O)Nc5ccc(F)cc5)CC4)cc3F)ccnc2cc1OC(=O)N1CCN(C)C[C@H]1C [Compound 3-5] :: 6.00 to 7.00

Now for a further molecule.
pIC50 lookup needed for COc1cc2nccc(Oc3ccc(NC(=O)C4(C(=O)Nc5ccc(F)cc5)CC4)cc3)c2cc1OC(=O)N1CCN(C)C[C@H]1C [Compound 7-3] , thanks.
6.00 to 7.00

----------
- experimental-system: LCK (Homo sapiens, UniProt P06239)
- Sequence (P06239 whole entry): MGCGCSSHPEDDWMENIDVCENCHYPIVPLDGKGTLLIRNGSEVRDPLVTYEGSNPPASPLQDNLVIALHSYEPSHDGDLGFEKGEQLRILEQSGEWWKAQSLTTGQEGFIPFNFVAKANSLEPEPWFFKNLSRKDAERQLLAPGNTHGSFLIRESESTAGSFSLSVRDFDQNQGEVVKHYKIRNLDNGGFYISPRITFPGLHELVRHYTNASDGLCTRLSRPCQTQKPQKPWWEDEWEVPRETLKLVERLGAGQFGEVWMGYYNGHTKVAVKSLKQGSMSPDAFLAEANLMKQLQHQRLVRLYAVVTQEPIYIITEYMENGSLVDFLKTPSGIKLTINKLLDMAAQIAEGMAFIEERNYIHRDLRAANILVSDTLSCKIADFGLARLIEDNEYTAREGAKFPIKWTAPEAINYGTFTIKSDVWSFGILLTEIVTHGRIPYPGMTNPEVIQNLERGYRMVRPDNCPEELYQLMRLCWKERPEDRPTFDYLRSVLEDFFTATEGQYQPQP
readout: IC50

IC50 lookup needed for `COc1cc2c(Oc3ccc(NC(=O)C4(C(=O)Nc5ccc(F)cc5)CC4)cc3)ccnc2cc1OC(=O)N1CCN(C)CC1` , thanks.
100 to 1000 nM

----------
What follows is a collection of IC50 values obtained with DDR1 (Homo sapiens, UniProt Q08345).
Sequence (Q08345 19-913): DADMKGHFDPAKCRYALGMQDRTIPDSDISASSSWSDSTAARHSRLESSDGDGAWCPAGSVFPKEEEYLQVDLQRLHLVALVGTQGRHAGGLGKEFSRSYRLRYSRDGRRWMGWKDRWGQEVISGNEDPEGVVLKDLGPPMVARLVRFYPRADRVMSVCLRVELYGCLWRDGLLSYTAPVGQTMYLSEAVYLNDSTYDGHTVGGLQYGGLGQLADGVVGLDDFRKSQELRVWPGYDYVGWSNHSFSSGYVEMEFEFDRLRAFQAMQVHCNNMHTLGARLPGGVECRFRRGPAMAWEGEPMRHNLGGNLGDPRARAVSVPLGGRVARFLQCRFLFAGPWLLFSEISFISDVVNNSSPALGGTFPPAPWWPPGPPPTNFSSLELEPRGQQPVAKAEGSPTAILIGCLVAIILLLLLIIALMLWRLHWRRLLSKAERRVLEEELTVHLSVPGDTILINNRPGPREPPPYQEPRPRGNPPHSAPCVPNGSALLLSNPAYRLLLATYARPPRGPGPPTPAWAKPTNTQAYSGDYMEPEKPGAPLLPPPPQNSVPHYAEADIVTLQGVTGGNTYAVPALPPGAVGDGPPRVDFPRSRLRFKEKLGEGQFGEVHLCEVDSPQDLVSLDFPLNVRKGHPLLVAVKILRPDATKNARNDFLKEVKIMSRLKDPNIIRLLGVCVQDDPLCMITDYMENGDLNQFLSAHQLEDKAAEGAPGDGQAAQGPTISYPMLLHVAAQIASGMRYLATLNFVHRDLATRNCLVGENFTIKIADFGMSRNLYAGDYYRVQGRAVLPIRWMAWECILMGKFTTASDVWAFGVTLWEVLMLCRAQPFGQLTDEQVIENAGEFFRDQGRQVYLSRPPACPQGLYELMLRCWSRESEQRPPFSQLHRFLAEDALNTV

COc1cc2c(Oc3ccc(NC(=O)C4(C(=O)Nc5ccc(F)cc5)CC4)cc3)ccnc2cc1OC(=O)N1CCN(C)C[C@@H]1C :: < 100 nM
COc1cc2c(Oc3ccc(NC(=O)C4(C(=O)Nc5ccc(F)cc5)CC4)cc3)ccnc2cc1N1CCNC1=O :: < 100 nM

Now for a further compound.
IC50 lookup needed for `COc1cc2nccc(Oc3ccc(NC(=O)C4(C(=O)Nc5ccc(F)cc5)CC4)cc3)c2cc1OC(=O)N1[C@H](C)CNC[C@@H]1C` , thanks.
< 100 nM

----------
Kindly state pIC50 for each of the entries shown.
- experimental-system: c-MER (Homo sapiens, UniProt Q12866)
- Sequence (Q12866 21-999): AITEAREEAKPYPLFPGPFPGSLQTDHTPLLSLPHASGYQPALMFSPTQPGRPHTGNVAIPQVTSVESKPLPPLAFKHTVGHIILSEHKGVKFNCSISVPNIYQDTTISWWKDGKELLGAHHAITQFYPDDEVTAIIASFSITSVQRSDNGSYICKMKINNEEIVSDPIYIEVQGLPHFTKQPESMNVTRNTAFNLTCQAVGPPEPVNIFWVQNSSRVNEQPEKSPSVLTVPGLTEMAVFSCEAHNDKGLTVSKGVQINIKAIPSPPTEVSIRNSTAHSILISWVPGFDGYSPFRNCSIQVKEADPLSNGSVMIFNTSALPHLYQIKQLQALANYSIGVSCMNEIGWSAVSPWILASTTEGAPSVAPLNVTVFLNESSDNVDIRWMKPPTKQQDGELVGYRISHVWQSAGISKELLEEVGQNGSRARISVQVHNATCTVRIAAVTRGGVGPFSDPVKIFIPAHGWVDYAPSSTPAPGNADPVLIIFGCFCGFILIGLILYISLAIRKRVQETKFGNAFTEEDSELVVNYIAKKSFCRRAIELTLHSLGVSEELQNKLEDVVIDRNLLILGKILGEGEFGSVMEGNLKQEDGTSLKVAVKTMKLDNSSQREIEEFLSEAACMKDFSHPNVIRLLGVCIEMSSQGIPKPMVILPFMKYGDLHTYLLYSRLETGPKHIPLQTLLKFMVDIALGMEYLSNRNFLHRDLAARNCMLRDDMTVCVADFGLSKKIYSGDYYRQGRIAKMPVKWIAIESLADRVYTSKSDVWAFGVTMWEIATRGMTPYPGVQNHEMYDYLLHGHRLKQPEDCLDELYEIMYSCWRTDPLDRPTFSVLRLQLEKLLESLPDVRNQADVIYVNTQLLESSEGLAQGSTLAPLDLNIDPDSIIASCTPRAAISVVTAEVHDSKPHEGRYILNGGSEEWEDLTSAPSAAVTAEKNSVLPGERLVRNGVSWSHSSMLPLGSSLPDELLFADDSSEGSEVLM
pIC50: −log10 of the molar value.

Record excerpt, results attached:
COc1cc2c(Oc3ccc(NC(=O)C4(C(=O)Nc5ccc(F)cc5)CC4)cc3)ccnc2cc1OC(=O)N1CCN(C)C[C@@H]1C [Compound 1-12] :: > 7.00
COc1cc2c(Oc3ccc(NC(=O)C4(C(=O)Nc5ccc(F)cc5)CC4)cc3)ccnc2cc1OC(=O)N1C[C@@H]2C[C@H]1CN2C [Compound 2-7] :: > 7.00
COc1cc2c(Oc3ccc(NC(=O)C4(C(=O)Nc5ccc(F)cc5)CC4)cc3)ccnc2cc1OC(=O)N1CCN(C)CC1 [Compound 1-10] :: > 7.00
COc1cc2nccc(Oc3ccc(NC(=O)C4(C(=O)Nc5ccc(F)cc5)CC4)cc3)c2cc1OC(=O)N1[C@H](C)CNC[C@@H]1C [Compound 7-4] :: > 7.00
COc1cc2nccc(Oc3ccc(NC(=O)C4(C(=O)Nc5ccc(F)cc5)CC4)cc3)c2cc1OC(=O)N1CCNC[C@H]1C [Compound 7-2] :: > 7.00

pIC50 lookup needed for COc1cc2c(Oc3ccc(NC(=O)C4(C(=O)Nc5ccc(F)cc5)CC4)cc3F)ncnc2cc1OC(=O)N1CCNC[C@H]1C [Compound 9-5] , thanks.
6.00 to 7.00
